- assay: chemical genetic growth profiling, strain panel (AID 1159580);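 further: tested at 20 µM; growth read once vehicle control cultures reached saturation at 30 °C; 1 = growth at the plate median or of vehicle wells; lower values mean less growth of the strain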
- experimentalConditions: S. cerevisiae deletion strains, growth OD, locus YKL068W, active compounds read low
The whole screen tested about 5,500 compounds, of which about 2,000 (36%) were called active. Roughly 18% stayed inconclusive and do not appear here. The list shows a part of the results.
Here, each record is paired with measured normalized growth data.
Please respond with just the number, no unit label.

compound	normalized growth
CCc1cccc2c3c([nH]c12)C(CC)(CC(=O)O)OCC3 (stereo not given)	1

Find the recorded normalized growth belonging to CC(NCCC(c1ccccc1)c1ccccc1)c1ccccc1 (stereo not given) and report it.
0.981

// same read-out, input: NCC1OC(OC2C(CO)OC(OC3C(O)C(N)CC(N)C3OC3OC(CO)C(O)CC3N)C2O)C(N)C(O)C1OC1OC(CO)C(O)C(O)C1O (stereo not given)
0.978

====

Here, each record is paired with measured normalized growth data.
- assay: chemical genetic growth profiling, strain panel (AID 1159580);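 further: tested at 20 µM; growth read once vehicle control cultures reached saturation at 30 °C; 1 = growth at the plate median or of vehicle wells; lower values mean less growth of the strain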
- experimentalConditions: S. cerevisiae deletion strains, growth OD, locus YDR226W, strain ADK1, active compounds read low
Hit rate of the full screen: of about 5,500 compounds, about 2,000 (36%) were called active. Inconclusive results (about 18%) are left out. Some of the results follow.
Please respond with just the number, no unit label.

Find the recorded normalized growth belonging to `CC(=O)c1ccccc1C(=O)c1ccc(C(C)(C)C)cc1` and report it.
0.96

// same read-out, input: CN1c2ccccc2C(C)(C)C12C=Cc1cc(O)ccc1O2 (configuration not stated)
0.972

// same read-out, input: `CSc1nnc(COc2ccc(C)c3c2CCC3)n1-c1ccccc1`
0.977

====

- assay: chemical genetic growth profiling, strain panel (AID 1159580);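 further: tested at 20 µM; growth read once vehicle control cultures reached saturation at 30 °C; 1 = growth at the plate median or of vehicle wells; lower values mean less growth of the strain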
- experimentalConditions: S. cerevisiae deletion strains, growth OD, locus YLR113W, strain HOG1, active compounds read low
The whole screen tested about 5,500 compounds, of which about 2,000 (36%) were called active. Roughly 18% stayed inconclusive and do not appear here. This is one part of the list.
readoutLabel: normalized growth
Please respond with just the number, no unit label.

Look over these answered cases.
structureSmiles	readoutLabel	number
O=C(OC[C@H]1O[C@H](OC(=O)c2cc(O)c(O)c(OC(=O)c3cc(O)c(O)c(O)c3)c2)[C@H](OC(=O)c2cc(O)c(O)c(OC(=O)c3cc(O)c(O)c(O)c3)c2)[C@@H](OC(=O)c2cc(O)c(O)c(OC(=O)c3cc(O)c(O)c(O)c3)c2)[C@@H]1OC(=O)c1cc(O)c(O)c(OC(=O)c2cc(O)c(O)c(O)c2)c1)c1cc(O)c(O)c(OC(=O)c2cc(O)c(O)c(O)c2)c1	normalized growth	1.08
NCCNCCNCCN	normalized growth	0.976

Find the recorded normalized growth belonging to `O=c1c(O)c(-c2ccc(O)c(O)c2)oc2cc(O)ccc12` and report it.
0.571

// same read-out, input: `Cc1cc(=O)n(-c2ccccc2)n1C`
0.981

// same read-out, input: `CC1=C(O)C(=O)C=C2C1=CC=C1[C@@]2(C)CC[C@@]2(C)[C@@H]3C[C@](C)(C(=O)O)CC[C@]3(C)CC[C@]12C`
0.472

====

- assay: chemical genetic growth profiling, strain panel (AID 1159580);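 further: tested at 20 µM; growth read once vehicle control cultures reached saturation at 30 °C; 1 = growth at the plate median or of vehicle wells; lower values mean less growth of the strain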
- experimentalConditions: S. cerevisiae deletion strains, growth OD, locus YCR088W, strain abp1
Among all 5,500 compounds or so, about 2,000 (36%) were called active. Inconclusive results (about 18%) are left out. Cut-off read from the data, not from the text of the source: active = normalized growth mostly below about 0.91 (no sharp cut-off); inconclusive = no clear call, values can overlap the other calls; inactive = mostly above about 0.92. This is one part of the list.
A correct response names exactly one class from active, inactive

Use the examples below as a reference point.
compound	discreteLabel
CCOc1ccc(C(=O)c2cc(O)c(OC)c(OC)c2O)cc1	inactive
c1ccc([C@H]2CN3CCSC3=N2)cc1	inactive

Call for entry `Cc1onc(-c2c(Cl)cccc2Cl)c1C(=O)N[C@@H]1C(=O)N2[C@@H]1SC(C)(C)[C@@H]2C(=O)O` :
inactive

// same read-out, input: `CCNc1nc(Cl)nc(NCC)n1`
inactive

// same read-out, input: COC(=O)C[C@H]1C(C)(C)[C@@H](O)[C@@H]2CC3=C4C=C(OC)O[C@@H](c5ccoc5)[C@]4(C)CCC3[C@@]1(C)C2=O (some centres undefined)
inactive

// same read-out, input: `CN1CCN(CC(=O)N2c3ccccc3C(=O)Nc3cccnc32)CC1`
inactive

// same read-out, input: `CCOc1ccc(C(=O)c2ccc(OC)c(O)c2O)cc1`
inactive

// same read-out, input: CC(=O)[C@@]1(O)CCC2C3CCC4=CC(=O)CC[C@]4(C)C3CC[C@@]21C (some centres undefined)
inactive

// same read-out, input: `Cc1onc(-c2ccccc2Cl)c1C(=O)N[C@@H]1C(=O)N2[C@@H]1SC(C)(C)[C@@H]2C(=O)O`
inactive

// same read-out, input: `CC1(C)S[C@@H]2[C@H](NC(=O)Cc3ccccc3)C(=O)N2[C@H]1C(=O)O`
inactive
